Tested on: MDA-MB-435 melanoma
assay_procedure: NCI-60 one-dose screen, 48 h
measurement_context: 10 µM unless noted
About 83,000 compounds went through this panel and 20% of them were active in at least one assay; those are over-represented in the sample as a whole. The source made the active and inactive calls. The calls were made as follows: active = growth percent below 10; inactive = the rest.
Labels: class 1 = active, class 0 = inactive

# compound, class
rows = [
    ("C[C@H]1[C@H](C)CC[C@]2(CO)CC[C@]3(C)C(=CC[C@@H]4[C@@]5(C)CCCNC(C)(C)[C@@H]5CC[C@]43C)[C@H]12", "class 1"),
    ("Cc1ccccc1C(c1ccccc1)c1ccccc1C", "class 0"),
    ("CCc1c(Nc2ccc(C)cc2)[nH]c(N)nc1=S", "class 0"),
    ("CC[N+](CC)(CCCC(C)[N+]1(Cc2ccccc2)C(C)=CC=C1C)Cc1ccccc1 (configuration not stated)", "class 0"),
    ("COc1ccc(Cn2nc(-c3ccccc3)c3c2CCc2cnoc2-3)cc1", "class 0"),
    ("CS(=O)(=O)c1ccc(-c2cc(-c3nnc(SCC(=O)Nc4ccc(C(=O)/C=C/c5ccc(Cl)cc5)cc4)n3-c3ccccc3)c3ccccc3n2)cc1", "class 0"),
    ("COc1ccc(-c2nc(N=Nc3c(O)[nH]c4ccccc34)nc(N3CCOCC3)c2C#N)cc1", "class 0"),
    ("CCN(CC)CCCC(Nc1c2ccc(Cl)cc2nc2ccc(OC)cc12)c1ccc(Cl)cc1 (configuration not stated)", "class 1"),
    ("CCCCCN1C=C/C(=C\\C(=O)N(C)c2ccc(Br)cc2)c2ccccc21", "class 0"),
    ("CCCCCN1C=C/C(=C\\C(=O)N(C)c2cccc3ccccc23)c2ccccc21", "class 0"),
    ("COc1ccc(-c2nc(SCC(C)C)nc(N/N=C(/C)c3ccc(OC)c(OC)c3)c2C#N)cc1", "class 0"),
    ("CO[C@@H]1[C@H](N(C)C(=O)c2ccccc2)C[C@@H]2O[C@]1(C)n1c3ccccc3c3c4c(c5c6ccccc6n2c5c31)C(=O)NC4=O", "class 0"),
]
